# credit: ChEMBL document CHEMBL1201862

Kindly state GI50 for each of the entries shown.
tested on: DU-145; assay: NCI tumour cell line growth inhibition, 48 h
Active and inactive are the calls of the source. Rule as the data show it: active = GI50 up to about 1.1 µM and inactive = higher.

These solved cases illustrate the format of a correct answer.
Query block: Using the record for O=C(O)C12C3CCC(O3)C1(C(=O)O)C1CCC2O1 (centres undefined) , report its GI50.
Result block: > 100 µM (inactive)

Query block: Using the record for `CC1=C(C)C1[N+](=O)[O-]` , report its GI50.
Result block: > 100 µM (inactive)

Query block: Using the record for `CCCc1c(OC)c(=O)c2c(O)cc(OC)c3c4c(OC)cc(O)c5c(=O)c(OC)c(CCC)c(c1c23)c54` , report its GI50.
Result block: 3.76 µM (inactive)

Please go through the list and note GI50 for each compound.
1. CCOC(=O)c1c(-c2ccc(OC)cc2)ccn1C
2. CSc1nc(SC)c2c(CN=[N+]=[N-])c(Br)n(Cc3ccccc3)c2n1

Result block:
1: > 10 µM (inactive); 2: > 100 µM (inactive)

* * *

tested on: NCI-H522; test: NCI tumour cell line growth inhibition, 48 h
Active and inactive are the calls of the source. No stated cut-off is given here; in the data, active = GI50 up to about 1.1 µM and inactive = higher.
Kindly state GI50 for each of the entries shown.

Query block: Fill in the recorded GI50 for this compound, with NCI-H522 as test system: `C/C(=N\c1ccc(Cl)cc1)c1ccncc1`
Result block: > 100 µM (inactive)

Query block: Fill in the recorded GI50 for this compound, with NCI-H522 as test system: `Brc1ccc(C2=NCSC(c3ccc(Br)cc3)=N2)cc1`
Result block: 22.2 µM (inactive)

Query block: Fill in the recorded GI50 for this compound, with NCI-H522 as test system: `O[C@@H]1C[C@H](Cl)c2c(Cl)sc(Cl)c21`
Result block: > 100 µM (inactive)

Query block: Fill in the recorded GI50 for this compound, with NCI-H522 as test system: C[C@@H]1CC2(N=CCS2)[C@]2(O)O[C@@H]3C[C@@]4(C)[C@H](C[C@H]3O[C@@H]2O1)C[C@H]1O[C@]12[C@@H]4[C@H](O)C(=O)[C@]1(C)C(C3=CC(=O)OC3)CC[C@]21O (stereo partly drawn)
Result block: < 0.01 µM (active)

Query block: Fill in the recorded GI50 for this compound, with NCI-H522 as test system: `C=CCN(c1cc(OCc2ccccc2)c2c(c(C)cn2S(=O)(=O)c2ccc([N+](=O)[O-])cc2)c1[N+](=O)[O-])S(C)(=O)=O`
Result block: > 100 µM (inactive)

Please go through the list and note GI50 for each compound.
1. COc1cc(/C=C/C(=O)N[C@@H]2C(=O)N3[C@@H]2SC(C)(C)[C@@H]3C(=O)O)ccc1O
2. Cc1cc2[nH]c3c(C#N)c(-c4ccccc4)c(/N=N/c4ccc(F)cc4)c(=O)n3c2cc1C
3. CCOc1ccccc1/N=N/C1C(=O)N(C(=O)CC(=O)Nc2ccccc2OC)N=C1C (stereo not drawn)

Result block:
1. > 100 µM (inactive)
2. 18.5 µM (inactive)
3. 42.9 µM (inactive)

* * *

system: HCT-15
Just a reminder that ties go to 0 (no): only GI50 strictly below 10 µM counts as 1 (yes).

Example entries begin here.
Query block: Strictly below 10 µM in GI50? CC1C[C@]2(C)C(NCCN)=Nc3ccccc3[C@@H]2N(C)c2ccccc21 (stereo not given in full)
Result block: 0 (no)

Query block: Strictly below 10 µM in GI50? O=C(O)C1C(C(=O)O)C(C(=O)O)C1C(=O)O (stereo not given)
Result block: 0 (no)

Query block: Strictly below 10 µM in GI50? `COc1cccc2cc(C(=O)O)c(=O)oc12`
Result block: 0 (no)

***
Query block: Strictly below 10 µM in GI50? `Cc1ccc(N(C(=O)CC(=O)NN)C(=O)c2ccccc2Cl)cc1`
Result block: 0 (no)

Query block: Strictly below 10 µM in GI50? C[n+]1c2ccccc2c(CNC(CCC(N)=O)C(=O)O)c2ccccc21 (stereo not given)
Result block: 1 (yes)

Query block: Strictly below 10 µM in GI50? `CC(C)CN(CC#N)CC(C)C`
Result block: 0 (no)

Query block: Strictly below 10 µM in GI50? C=CCC1(CN(C)C)CC/C(=C\c2ccc3c(c2)OCO3)C1=O (stereo not given)
Result block: 0 (no)
